For each entry below, report its IC50 value.
Molecular target: DNA topoisomerase 4 subunit A (Escherichia coli K-12, UniProt P0AFI2)
Sequence (P0AFI2 whole entry): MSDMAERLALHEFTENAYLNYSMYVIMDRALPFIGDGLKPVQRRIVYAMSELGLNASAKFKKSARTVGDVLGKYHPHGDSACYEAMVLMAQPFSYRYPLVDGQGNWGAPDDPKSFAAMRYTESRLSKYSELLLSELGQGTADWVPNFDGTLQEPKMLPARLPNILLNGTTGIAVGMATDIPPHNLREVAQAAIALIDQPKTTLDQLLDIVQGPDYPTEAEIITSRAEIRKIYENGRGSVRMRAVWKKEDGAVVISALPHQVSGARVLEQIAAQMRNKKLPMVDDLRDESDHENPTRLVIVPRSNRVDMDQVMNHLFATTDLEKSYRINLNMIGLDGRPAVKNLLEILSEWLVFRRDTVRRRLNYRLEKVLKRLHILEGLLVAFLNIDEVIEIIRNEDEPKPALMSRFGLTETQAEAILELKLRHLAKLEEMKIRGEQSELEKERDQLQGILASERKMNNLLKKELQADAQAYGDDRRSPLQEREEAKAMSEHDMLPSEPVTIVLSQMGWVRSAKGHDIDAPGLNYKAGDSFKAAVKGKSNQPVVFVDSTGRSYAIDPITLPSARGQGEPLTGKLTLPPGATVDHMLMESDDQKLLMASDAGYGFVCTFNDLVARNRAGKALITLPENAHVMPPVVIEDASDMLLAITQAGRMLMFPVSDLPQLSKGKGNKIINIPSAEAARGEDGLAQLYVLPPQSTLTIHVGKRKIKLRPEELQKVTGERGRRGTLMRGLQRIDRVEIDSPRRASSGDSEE
Experiment: Inhibitory activity against decatenation of DNA topoisomerase IV isolated from Escherichia coli
Answers are plain numbers, in µM.

Give its IC50 value. Item: Clc1ccc(COc2ccc(/C=C/c3cc(C4CCNCC4)[nH]n3)cc2)cc1Cl
64.9

Give its IC50 value. Item: Clc1cccc(-n2nc(C3CCNCC3)cc2/C=C/c2c[nH]c3ccc(Cl)cc23)c1
31.8

Next:
Give its IC50 value. Item: Cn1cc(/C=C/c2cc(C3CCNCC3)nn2-c2cccc(Cl)c2)c2cc(Cl)ccc21
35.4
